Species on record: Rattus norvegicus
assay_name: Open TG-GATES - Regimen: Single
Format: toxicity, organism-based, Sprague-Dawley
Parameters: regimen Single, gender Male, age 6 weeks
particulars: in vivo, po, 0 mg/kg, 3 h, tissue Plasma, route gavage, dose level Control
Criterion: LDH meeting or surpassing 200 IU/L. Met: Met. Not met: Not met.

# compound, group_label
measured = [
    ("C=C(C)[C@H]1Cc2c(ccc3c2O[C@@H]2COc4cc(OC)c(OC)cc4[C@@H]2C3=O)O1", "Not met"),
    ("O=[N+]([O-])c1ccc(O)c([N+](=O)[O-])c1", "Not met"),
    ("CCOC(=O)C(C)(C)Oc1ccc(Cl)cc1 [CLOFIBRATE]", "Met"),
    ("C[C@H]1C(=O)O[C@@H]2CCN3CC=C(COC(=O)[C@](C)(O)[C@]1(C)O)[C@H]23", "Not met"),
    ("Cc1cccc(C)c1OCC(C)N (stereo not given)", "Not met"),
]

* * *

Let's look at some compounds and their measured KIDNEY_TOTAL.
Species: Rattus norvegicus
assay_name: Open TG-GATES - Regimen: Single
Format: toxicity, organism-based, Sprague-Dawley
Set-up: regimen Single, gender Male, age 6 weeks
particulars: in vivo, po, 0 mg/kg, 3 h, tissue Kidney, route gavage, dose level Control

# compound, reading_unit, KIDNEY_TOTAL
records = [
    ("Cc1cccc(C)c1OCC(C)N (stereo unspecified)", "g", 1.9),
    ("C[C@H]1C(=O)O[C@@H]2CCN3CC=C(COC(=O)[C@](C)(O)[C@]1(C)O)[C@H]23", "g", 2),
    ("CCOC(=O)C(C)(C)Oc1ccc(Cl)cc1 [CLOFIBRATE]", "g", 1.8),
    ("C[C@H]1O[C@H](O[C@H]2[C@H](O)[C@@H](O)[C@@H](O[C@H]3[C@H](O)[C@@H](O)C(O)O[C@@H]3CO)O[C@@H]2CO)[C@H](O)[C@@H](O)[C@@H]1N[C@H]1C=C(CO)[C@@H](O)[C@H](O)[C@H]1O (stereo partly specified)", "g", 1.8),
    ("Cc1ccc2cc3c(ccc4ccccc43)c3c2c1CC3", "g", 1.9),
    ("OCCN1CCN(CCCN2c3ccccc3Sc3ccc(C(F)(F)F)cc32)CC1", "g", 1.9),
]

* * *

Readings of Fbg for the listed molecules
Species: Rattus norvegicus
assay_name: Open TG-GATES - Regimen: Daily Repeat
Format: toxicity, organism-based, Sprague-Dawley
Design: regimen Daily Repeat, gender Male, age 6 weeks
particulars: in vivo, po, 0 mg/kg, […], tissue Blood, route gavage, dose level Control, time 7 day

# molecule, reading_unit, Fbg
records = [
    ("OCCN1CCN(CCCN2c3ccccc3Sc3ccc(C(F)(F)F)cc32)CC1", "mg/dL", 239.4),
    ("C=C(C)[C@H]1Cc2c(ccc3c2O[C@@H]2COc4cc(OC)c(OC)cc4[C@@H]2C3=O)O1", "mg/dL", 239.4),
    ("Cn1cc[nH]c1=S", "mg/dL", 321.4),
    ("C[C@H]1O[C@H](O[C@H]2[C@H](O)[C@@H](O)[C@@H](O[C@H]3[C@H](O)[C@@H](O)C(O)O[C@@H]3CO)O[C@@H]2CO)[C@H](O)[C@@H](O)[C@@H]1N[C@H]1C=C(CO)[C@@H](O)[C@H](O)[C@H]1O (some centres undefined)", "mg/dL", 296.6),
    ("O=[N+]([O-])c1ccc(O)c([N+](=O)[O-])c1", "mg/dL", 247),
    ("Cc1cccc(C)c1OCC(C)N (centres undefined)", "mg/dL", 300),
    ("CCOC(=O)C(C)(C)Oc1ccc(Cl)cc1 [CLOFIBRATE]", "mg/dL", 238),
    ("O=C1CN(/N=C/c2ccc([N+](=O)[O-])o2)C(=O)N1", "mg/dL", 227.8),
    ("C[C@H]1C(=O)O[C@@H]2CCN3CC=C(COC(=O)[C@](C)(O)[C@]1(C)O)[C@H]23", "mg/dL", 309.8),
]

* * *

Quick list: PT per entry.
Species: Rattus norvegicus
assay_name: Open TG-GATES - Regimen: Daily Repeat
Format: toxicity, organism-based, Sprague-Dawley
Set-up: regimen Daily Repeat, gender Male, age 6 weeks
particulars: in vivo, po, 0 mg/kg, […], tissue Blood, route gavage, dose level Control, time 28 day

# compound, PT
measured = [
    ("O=[N+]([O-])c1ccc(O)c([N+](=O)[O-])c1", "11.6 s"),
    ("O=C1CN(/N=C/c2ccc([N+](=O)[O-])o2)C(=O)N1", "12.4 s"),
    ("C=C(C)[C@H]1Cc2c(ccc3c2O[C@@H]2COc4cc(OC)c(OC)cc4[C@@H]2C3=O)O1", "12.5 s"),
    ("Cc1cccc(C)c1OCC(C)N (centres undefined)", "16.1 s"),
    ("Cn1cc[nH]c1=S", "16.4 s"),
    ("CCOC(=O)C(C)(C)Oc1ccc(Cl)cc1 [CLOFIBRATE]", "12 s"),
    ("OCCN1CCN(CCCN2c3ccccc3Sc3ccc(C(F)(F)F)cc32)CC1", "11.8 s"),
    ("C[C@H]1C(=O)O[C@@H]2CCN3CC=C(COC(=O)[C@](C)(O)[C@]1(C)O)[C@H]23", "16 s"),
    ("C[C@H]1O[C@H](O[C@H]2[C@H](O)[C@@H](O)[C@@H](O[C@H]3[C@H](O)[C@@H](O)C(O)O[C@@H]3CO)O[C@@H]2CO)[C@H](O)[C@@H](O)[C@@H]1N[C@H]1C=C(CO)[C@@H](O)[C@H](O)[C@H]1O (some centres undefined)", "13.3 s"),
]

* * *

Species: Rattus norvegicus
assay_name: Open TG-GATES - Regimen: Daily Repeat
Assay type: toxicity, organism-based, Sprague-Dawley
Set-up: regimen Daily Repeat, gender Male, age 6 weeks
particulars: in vivo, po, 0 mg/kg, […], tissue Plasma, route gavage, dose level Control, time 28 day
experimental_endpoint: CRE (mg/dL)

# molecule, experimental_endpoint, value_observed
data = [
    ("C[C@H]1O[C@H](O[C@H]2[C@H](O)[C@@H](O)[C@@H](O[C@H]3[C@H](O)[C@@H](O)C(O)O[C@@H]3CO)O[C@@H]2CO)[C@H](O)[C@@H](O)[C@@H]1N[C@H]1C=C(CO)[C@@H](O)[C@H](O)[C@H]1O (some centres undefined) [ACARBOSE]", "CRE", 0.2),
    ("CCOC(=O)C(C)(C)Oc1ccc(Cl)cc1 [CLOFIBRATE]", "CRE", 0.4),
    ("Cn1cc[nH]c1=S [METHIMAZOLE]", "CRE", 0.2),
    ("C=C(C)[C@H]1Cc2c(ccc3c2O[C@@H]2COc4cc(OC)c(OC)cc4[C@@H]2C3=O)O1 [ROTENONE]", "CRE", 0.4),
    ("O=[N+]([O-])c1ccc(O)c([N+](=O)[O-])c1 [2,4-DINITROPHENOL]", "CRE", 0.5),
    ("O=C1CN(/N=C/c2ccc([N+](=O)[O-])o2)C(=O)N1 [NITROFURANTOIN]", "CRE", 0.5),
    ("C[C@H]1C(=O)O[C@@H]2CCN3CC=C(COC(=O)[C@](C)(O)[C@]1(C)O)[C@H]23 [MONOCROTALINE]", "CRE", 0.2),
    ("OCCN1CCN(CCCN2c3ccccc3Sc3ccc(C(F)(F)F)cc32)CC1 [FLUPHENAZINE]", "CRE", 0.6),
    ("Cc1cccc(C)c1OCC(C)N (centres undefined) [MEXILETINE]", "CRE", 0.2),
]

* * *

Organism: Rattus norvegicus
assay_name: Open TG-GATES - Regimen: Single
Type: toxicity, organism-based, Sprague-Dawley
Set-up: regimen Single, gender Male, age 6 weeks
particulars: in vivo, po, 0 mg/kg, 3 h, tissue Blood, route gavage, dose level Control
Examples of compounds with documented APTT follow.
experimental_endpoint: APTT (s)

# compound, reading_unit, value_observed
measured = [
    ("Cn1cc[nH]c1=S", "s", 20.3),
    ("OCCN1CCN(CCCN2c3ccccc3Sc3ccc(C(F)(F)F)cc32)CC1", "s", 16.1),
    ("CCOC(=O)C(C)(C)Oc1ccc(Cl)cc1 [CLOFIBRATE]", "s", 18.8),
    ("O=[N+]([O-])c1ccc(O)c([N+](=O)[O-])c1", "s", 15.9),
    ("C=C(C)[C@H]1Cc2c(ccc3c2O[C@@H]2COc4cc(OC)c(OC)cc4[C@@H]2C3=O)O1", "s", 15),
    ("C[C@H]1O[C@H](O[C@H]2[C@H](O)[C@@H](O)[C@@H](O[C@H]3[C@H](O)[C@@H](O)C(O)O[C@@H]3CO)O[C@@H]2CO)[C@H](O)[C@@H](O)[C@@H]1N[C@H]1C=C(CO)[C@@H](O)[C@H](O)[C@H]1O (stereo partly drawn)", "s", 16.9),
    ("C[C@H]1C(=O)O[C@@H]2CCN3CC=C(COC(=O)[C@](C)(O)[C@]1(C)O)[C@H]23", "s", 20.3),
    ("Cc1cccc(C)c1OCC(C)N (stereo not drawn)", "s", 22.2),
]

FYI, the data here is from ChEMBL document CHEMBL3885861.
